Just for reference, PubChem BioAssay (NCI) is where these values come from.

- Test system: A498 renal
- Experimental Details: NCI tumour cell line growth inhibition, 48 h
Measure Name: TGI (µM)
// return numeric value only (unit: µM, not printed)

Consider the following illustrative entries.
Which value of TGI has been reported for `COc1cc(/C=C2\C(=O)N(Cc3ccc(Cl)cc3)c3ccccc32)cc(OC)c1OC` in the records?
7.97

And for `COC(=O)CCSC(=O)Nc1ccc(N=Nc2ccccc2)cc1` ?
62.1

And for COc1ccc(C2c3cc4c(cc3OC(NNc3ccccc3)C2C)OCO4)cc1 (centres undefined) ?
76.9

And for `CCN(CC)c1ccc(/C=C/C(=O)c2ccc(Nc3nc(Nc4ccccc4)nc(Nc4ccccc4)n3)cc2)cc1` ?
48

---
Which value of TGI has been reported for `N#C/C(=C\c1ccncc1)c1csc2ccccc12` in the records?
66.6
